Answer each item with its documented IC50.
molecular target: KRAS G12V (Homo sapiens (Human), UniProt P01116+P62937, G12V); experiment: Ras-Raf (BRAF RBD) disruption / FRET / MOA assay, KRAS G12V; format: biochemical; conditions: read-out: IC50* KRAS G12V FRET data
Sequence (P01116-2 other isoform, or with tags, fused parts or gaps G12V): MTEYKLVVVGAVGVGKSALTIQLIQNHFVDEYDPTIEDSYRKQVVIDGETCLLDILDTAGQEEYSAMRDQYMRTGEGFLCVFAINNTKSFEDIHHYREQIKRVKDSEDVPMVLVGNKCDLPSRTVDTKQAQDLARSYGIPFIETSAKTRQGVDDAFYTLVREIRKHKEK
Sequence (P62937 whole entry): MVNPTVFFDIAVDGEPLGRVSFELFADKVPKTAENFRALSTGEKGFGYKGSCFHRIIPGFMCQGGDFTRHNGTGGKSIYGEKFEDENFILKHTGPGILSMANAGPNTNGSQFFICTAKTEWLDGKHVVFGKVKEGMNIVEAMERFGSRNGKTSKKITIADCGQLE

compound	IC50
CCn1c(-c2cccnc2[C@H](C)OC)c2c3cc(ccc31)-c1csc(n1)C[C@H](NC(=O)[C@H](C(C)C)N(C)C(=O)N1CCN(C(=O)/C=C/CN(C)C)C[C@@H]1C)C(=O)N1CCC[C@H](N1)C(=O)OCC(C)(C)C2 (atropisomer, axis not shown) [Example A709]	100 to 1000 nM
C=CC(=O)N1CC[C@](C#N)(C(=O)N(C)[C@H](C(=O)N[C@H]2Cc3cccc(c3)-c3ccc4c(c3)c(c(-c3cccnc3[C@H](C)OC)n4CC)CC(C)(C)COC(=O)[C@@H]3CCCN(N3)C2=O)C(C)C)C1 (atropisomer, axis not shown) [Example A443]	100 to 1000 nM
C=CC(=O)N1CC[C@H](C(=O)N(C)[C@H](C(=O)N[C@H]2Cc3cccc(c3)-c3ccc4c(c3)c(c(-c3cccnc3[C@H](C)OC)n4CC#CC)CC(C)(C)COC(=O)[C@@H]3CCCN(N3)C2=O)C(C)C)C1 (atropisomer, axis not shown) [Example A531]	1000 to 10000 nM

// C=CC(=O)N1CC(OC[C@H](C(=O)N[C@H]2Cc3cccc(c3)-c3ccc4c(c3)c(c(-c3cccnc3[C@H](C)OC)n4CC(F)(F)F)CC(C)(C)COC(=O)[C@@H]3CCCN(N3)C2=O)C(C)C)C1 (atropisomer, axis not shown) [Example A344] : IC50 value = 1000 to 10000 nM
